Data origin: patent US5663180A

target: HUMAN COX I (Homo sapiens, UniProt P23219); construct: A 2.0 kb fragment containing the coding region of either human or murine COX-I or human or murine COX-II; made in house; host or cells: SF9 insect cells (recombinant baculovirus, pVL1393); CHAPS-solubilized; test: COX I activity in vitro (PGE2 formed, ELISA, recombinant enzyme); format: biochemical; conditions: recombinant human COX I, arachidonic acid 10 μM, 10-20 min pre-incubation; read-out: HUMAN COX I ID50
Sequence (P23219 24-599): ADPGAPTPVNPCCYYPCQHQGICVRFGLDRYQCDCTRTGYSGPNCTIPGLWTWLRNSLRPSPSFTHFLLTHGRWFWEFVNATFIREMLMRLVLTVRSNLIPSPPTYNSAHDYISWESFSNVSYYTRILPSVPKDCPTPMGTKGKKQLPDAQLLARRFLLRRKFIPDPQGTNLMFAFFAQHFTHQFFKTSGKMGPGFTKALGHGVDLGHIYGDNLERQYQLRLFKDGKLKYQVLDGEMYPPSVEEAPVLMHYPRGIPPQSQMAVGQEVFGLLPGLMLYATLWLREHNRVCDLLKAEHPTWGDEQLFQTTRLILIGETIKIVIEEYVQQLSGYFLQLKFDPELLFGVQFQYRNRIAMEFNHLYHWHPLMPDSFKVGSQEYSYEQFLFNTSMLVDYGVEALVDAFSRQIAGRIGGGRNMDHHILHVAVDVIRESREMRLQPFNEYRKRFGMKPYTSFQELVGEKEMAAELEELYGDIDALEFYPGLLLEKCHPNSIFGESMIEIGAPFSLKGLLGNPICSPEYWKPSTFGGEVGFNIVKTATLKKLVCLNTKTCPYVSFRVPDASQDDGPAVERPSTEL
Attribute measured: IC50 (µM)

Examples from the recorded data:
Smiles string	Unit tag	IC50
CC1(C)CC(c2ccc(F)cc2)=C(c2ccc(S(N)(=O)=O)cc2)C1	µM	0.5
NS(=O)(=O)c1ccc(C2=C(c3ccc(F)c(Cl)c3)CCC2)cc1	µM	2.1

a. CCC1(CC)CC(c2ccc(F)cc2)=C(c2ccc(S(N)(=O)=O)cc2)C1
b. NS(=O)(=O)c1ccc(C2=C(c3cccc(F)c3F)CCC2)cc1
Please let me know which one, a or b , has a lower measured IC50 value. Choose, then provide that item's label.
b

---

# reported inhibition in vivo at 30 mg/kg; entries follow
system: hyperalgesic foot withdrawal (rat carrageenan); experiment: Rat Carrageenan-induced Analgesia Test; type: in vivo, Male Sprague-Dawley rats; conditions: po, 3 h, read-out: ANALGESIA % Inhibition
Give just the numeric value; % need not be written.

Smiles string	inhibition in vivo at 30 mg/kg, %
COc1ccc(C2=C(c3ccc(S(N)(=O)=O)cc3)CCC2)cc1Cl	17

Endpoint output: inhibition in vivo at 30 mg/kg of NS(=O)(=O)c1ccc(C2=C(c3ccc(F)c(Cl)c3)CCC2)cc1 . Value?
46

Endpoint output: inhibition in vivo at 30 mg/kg of NS(=O)(=O)c1ccc(C2=C(c3ccc(Cl)c(Cl)c3)CCC2)cc1 . Value?
26

Endpoint output: inhibition in vivo at 30 mg/kg of NS(=O)(=O)c1ccc(C2=C(c3ccc(F)cc3)CCC2)cc1 . Value?
44

Endpoint output: inhibition in vivo at 30 mg/kg of COc1ccc(C2=C(c3ccc(S(C)(=O)=O)cc3)CCC2)cc1 . Value?
15

---

target: HUMAN COX I (Homo sapiens, UniProt P23219); construct: A 2.0 kb fragment containing the coding region of either human or murine COX-I or human or murine COX-II; made in house; host or cells: SF9 insect cells (recombinant baculovirus, pVL1393); CHAPS-solubilized; assay: COX I activity in vitro (PGE2 formed, ELISA, recombinant enzyme); format: biochemical; conditions: recombinant cox-i; read-out: HUMAN COX I ID50
Attribute measured: IC50 (µM)
Give just the numeric value; µM need not be written.

Examples from the recorded data:
Compound	IC50 (µM)
NS(=O)(=O)c1ccc(C2=C(c3ccc(Cl)cc3)CCC2)cc1 [Example 21]	1.3
COc1ccc(C2=C(c3ccc(S(N)(=O)=O)cc3)CCC2)cc1F [Example 30]	8.1
NS(=O)(=O)c1ccc(C2=C(c3ccc(F)cc3)CCC2)cc1 [Example 20]	4.2
CC1(C)CC(c2ccc(Cl)cc2)=C(c2ccc(S(C)(=O)=O)cc2)C1 [Example 14]	1.6
CC1(C)CC(c2ccc(F)cc2)=C(c2ccc(S(C)(=O)=O)cc2)C1 [Example 12]	18.3

Endpoint output: IC50 of COc1ccc(C2=C(c3ccc(S(C)(=O)=O)cc3)CCC2)cc1 [Example 23] . Value?
9.9

---

Molecular target: HUMAN COX II (Homo sapiens, UniProt P35354)
Construct: A 2.0 kb fragment containing the coding region of either human or murine COX-I or human or murine COX-II; CHAPS-solubilized
Sequence (P35354 18-604): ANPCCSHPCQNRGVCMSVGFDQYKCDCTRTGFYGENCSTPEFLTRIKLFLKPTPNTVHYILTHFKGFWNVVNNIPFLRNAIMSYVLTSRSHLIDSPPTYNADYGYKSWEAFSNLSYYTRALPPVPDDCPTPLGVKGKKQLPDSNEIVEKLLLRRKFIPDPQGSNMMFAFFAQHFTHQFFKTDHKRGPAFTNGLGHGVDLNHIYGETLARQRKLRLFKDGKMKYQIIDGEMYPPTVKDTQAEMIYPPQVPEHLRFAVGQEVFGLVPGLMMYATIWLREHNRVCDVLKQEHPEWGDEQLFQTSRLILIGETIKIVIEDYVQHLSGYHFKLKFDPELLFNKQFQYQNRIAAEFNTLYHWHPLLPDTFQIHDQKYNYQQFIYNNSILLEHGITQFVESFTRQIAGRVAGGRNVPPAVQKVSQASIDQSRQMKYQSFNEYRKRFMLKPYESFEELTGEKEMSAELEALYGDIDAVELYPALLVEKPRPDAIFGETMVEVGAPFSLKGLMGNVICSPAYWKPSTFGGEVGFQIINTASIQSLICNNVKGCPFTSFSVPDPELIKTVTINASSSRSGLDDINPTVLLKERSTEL
Assay: COX II activity in vitro (PGE2 formed, ELISA, recombinant enzyme)
Conditions: arachidonic acid 10 μM, 10-20 min pre-incubation, read-out: HUMAN COX II ID50
# reported IC50; entries follow

Examples from the recorded data:
Compound	Reported measurement
CC1(C)CC(c2ccc(Cl)cc2)=C(c2ccc(S(N)(=O)=O)cc2)C1 [Example 15]	< 100 nM
CCC1(CC)CC(c2ccc(F)cc2)=C(c2ccc(S(N)(=O)=O)cc2)C1 [Example 19]	3900 nM
CS(=O)(=O)c1ccc(C2=C(c3cccc(F)c3F)CCC2)cc1 [Example 25]	< 100 nM

# next compound below
Endpoint output: IC50 of O=S(=O)(CF)c1ccc(C2=C(c3ccc(F)cc3)CCC2)cc1 [Example 37] . Value?
< 100 nM

---

biological target: HUMAN COX I (Homo sapiens); construct: A 2.0 kb fragment containing the coding region of either human or murine COX-I or human or murine COX-II; made in house; host or cells: SF9 insect cells (recombinant baculovirus, pVL1393); CHAPS-solubilized; experiment: COX I activity in vitro (PGE2 formed, ELISA, recombinant enzyme); type: biochemical; conditions: recombinant human COX I, arachidonic acid 10 μM, 10-20 min pre-incubation; read-out: HUMAN COX I ID50
Attribute measured: IC50

Endpoint output: IC50 of Cc1ccc(C2=C(c3ccc(S(C)(=O)=O)cc3)CCC2)cn1 . Value?
> 100 µM

Endpoint output: IC50 of CS(=O)(=O)c1ccc(C2=C(c3cccc(F)c3F)CCC2)cc1 . Value?
> 100 µM

Endpoint output: IC50 of O=S(=O)(CF)c1ccc(C2=C(c3ccc(F)cc3)CCC2)cc1 . Value?
> 100 µM
